# subject_of_test: T1, recombinant human VEGF165 (human, UniProt P15692-4 27-191)
# T1 construct: also called hVEGF165; rhVEGF165
# method_description: binding ELISA, coated rhVEGF165
Criterion: EC50 strictly under 0.3 nM. Met: rule met. Not met: rule not met.

For orientation, consider the following solved cases.
VEGFBII023 (VHH, biparatopic bivalent VHH in one chain; also called VEGFBII23B04-40GS-10E07; VEGFBI023) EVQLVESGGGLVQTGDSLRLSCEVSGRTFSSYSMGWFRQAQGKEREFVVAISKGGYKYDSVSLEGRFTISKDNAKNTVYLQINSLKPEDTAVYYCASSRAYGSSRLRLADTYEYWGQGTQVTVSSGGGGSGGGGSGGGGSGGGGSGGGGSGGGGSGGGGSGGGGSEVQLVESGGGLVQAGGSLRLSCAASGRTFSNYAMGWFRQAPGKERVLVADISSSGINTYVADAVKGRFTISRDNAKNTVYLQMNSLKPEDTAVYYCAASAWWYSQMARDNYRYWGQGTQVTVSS	rule met
VEGFBII022 (VHH, biparatopic bivalent VHH in one chain; also called VEGFBII23B04-9GS-5B05) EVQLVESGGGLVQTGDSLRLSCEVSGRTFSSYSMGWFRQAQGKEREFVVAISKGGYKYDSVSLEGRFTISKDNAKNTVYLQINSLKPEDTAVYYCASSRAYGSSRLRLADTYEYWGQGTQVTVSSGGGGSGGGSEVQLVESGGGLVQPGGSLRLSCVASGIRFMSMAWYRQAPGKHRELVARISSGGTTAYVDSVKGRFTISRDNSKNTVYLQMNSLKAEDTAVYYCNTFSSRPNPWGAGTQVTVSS	rule met
VEGFBII025 (VHH, biparatopic bivalent VHH in one chain; also called VEGFBII10E07-40GS-23B04) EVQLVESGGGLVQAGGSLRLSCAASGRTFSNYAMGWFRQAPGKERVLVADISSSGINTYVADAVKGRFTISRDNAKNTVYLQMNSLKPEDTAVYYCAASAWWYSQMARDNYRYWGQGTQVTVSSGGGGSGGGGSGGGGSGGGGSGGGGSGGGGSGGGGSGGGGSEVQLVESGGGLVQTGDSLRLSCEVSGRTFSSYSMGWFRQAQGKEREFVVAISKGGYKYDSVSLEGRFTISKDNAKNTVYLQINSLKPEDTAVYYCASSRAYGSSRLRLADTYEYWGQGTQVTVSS	rule not met
VEGFBII010 (VHH, bivalent VHH in one chain; also called VEGFBII23B04-35GS-23B04; homodimeric VEGFBII23B04) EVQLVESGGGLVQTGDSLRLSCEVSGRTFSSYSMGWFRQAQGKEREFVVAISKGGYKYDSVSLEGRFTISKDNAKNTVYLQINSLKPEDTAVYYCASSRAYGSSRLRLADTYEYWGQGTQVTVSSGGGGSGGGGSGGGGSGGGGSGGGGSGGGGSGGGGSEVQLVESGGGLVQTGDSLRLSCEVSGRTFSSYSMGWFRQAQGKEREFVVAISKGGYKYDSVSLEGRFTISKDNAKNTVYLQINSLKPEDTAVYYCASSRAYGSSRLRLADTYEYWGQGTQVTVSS	rule not met
VEGFBII024 (VHH, biparatopic bivalent VHH in one chain; also called VEGFBII23B04-40GS-86H09; VEGFBI024) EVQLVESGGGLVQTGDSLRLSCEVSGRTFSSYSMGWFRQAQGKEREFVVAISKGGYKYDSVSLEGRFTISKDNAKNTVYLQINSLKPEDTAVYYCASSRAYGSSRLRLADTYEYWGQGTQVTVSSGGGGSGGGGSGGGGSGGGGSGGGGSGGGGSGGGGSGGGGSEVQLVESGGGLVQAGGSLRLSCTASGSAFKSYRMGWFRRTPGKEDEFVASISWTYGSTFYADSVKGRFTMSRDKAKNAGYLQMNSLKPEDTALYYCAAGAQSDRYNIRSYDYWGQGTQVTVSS	rule not met

Next, consider the following binder.
Would you kindly verify if EC50 of VEGFBII021 (VHH, biparatopic bivalent VHH in one chain; also called VEGFBII23B04-40GS-5B05) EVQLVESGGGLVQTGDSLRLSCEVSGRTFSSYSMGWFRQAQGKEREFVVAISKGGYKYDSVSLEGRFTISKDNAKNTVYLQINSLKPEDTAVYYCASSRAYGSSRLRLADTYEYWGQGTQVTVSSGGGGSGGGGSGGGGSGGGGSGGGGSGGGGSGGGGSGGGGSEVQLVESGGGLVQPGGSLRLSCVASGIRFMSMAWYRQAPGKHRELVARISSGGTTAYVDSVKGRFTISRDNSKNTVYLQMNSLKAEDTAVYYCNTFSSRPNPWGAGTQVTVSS is strictly less than 0.3 nM? rule not met
